Where do these numbers come from? They come from patent US9169279B2.

- assay: Dog PK study: zoledronic acid in serum after IV or oral capsule dosing, enteric or non-enteric coated, with or without excess coformer (LC/MS/MS)
- Assay type: in vivo, Beagle dogs
- setup conditions: beagle, intravenous, 0.12 mg/kg, Leg 18, 15 min IV infusion 0.12 mg/kg, saline solution, Time 1 hour, read-out: Average serum concentration of 5 dogs
measurement name: concentration at 1 h (ng/mL)
One number for each entry, in ng/mL.

# input Using known records, supply concentration at 1 h for O=P(O)(O)C(O)(Cn1ccnc1)P(=O)(O)O [Zoledronic acid]
# output 133

====

- assay: Rat PK study: zoledronic acid in plasma after IV, oral gavage or intraduodenal dosing (LC/MS/MS)
- Assay type: in vivo
- setup conditions: male, Sprague-Dawley, other: intraduodenal (ID, duodenal cannula), 5 mg/kg, read-out: Average plasma concentration of 3 rats
measurement name: concentration at 0.5 hour
Express your answer as a number followed by its unit.

# input Using known records, supply concentration at 0.5 hour for O=P(O)(O)C(O)(Cn1ccnc1)P(=O)(O)O [Zoledronic acid]
# output 110 ng/mL

====

- assay: Rat PK study: zoledronic acid in plasma after IV, oral gavage or intraduodenal dosing (LC/MS/MS)
- Format: in vivo
- setup conditions: male, Sprague-Dawley, iv, 0.5 mg/kg, read-out: Average plasma concentration of 3 rats
measurement name: concentration at 2 hour
Express your answer as a number followed by its unit.

# input Using known records, supply concentration at 2 hour for O=P(O)(O)C(O)(Cn1ccnc1)P(=O)(O)O
# output 113 ng/mL

====

- assay: Dog PK study: zoledronic acid in serum after IV or oral capsule dosing, enteric or non-enteric coated, with or without excess coformer (LC/MS/MS)
- Format: in vivo, Beagle dogs
- setup conditions: beagle, po, Leg 19, 61.3 mg with 322.9 mg DL-lysine monohydrate, gelatin capsule, PO, 1.5 h, read-out: Average serum concentration of 5 dogs
measurement name: concentration at 1.5 h

# input Using known records, supply concentration at 1.5 h for O=P(O)(O)C(O)(Cn1ccnc1)P(=O)(O)O [Zoledronic acid]
# output 210 ng/mL

====

- assay: Dog PK study: zoledronic acid in serum after IV or oral capsule dosing, enteric or non-enteric coated, with or without excess coformer (LC/MS/MS)
- Type: in vivo, Beagle dogs
- setup conditions: beagle, po, 56 mg, Leg 7, 56.0 mg, enteric coated capsule, PO, 4 h, read-out: Average serum concentration of 5 dogs
- Text: This can be attributed to the fact that both animals have historically been used in the safety evaluation and PK screening studies and are recommended by appropriate regulatory agencies. […] Additional tests included ID administration in rats and administration of enteric coated capsules in dogs. USA. Some animals have surgical catheters (jugular vein and intraduodenum) were implanted to the animals prior to the studies. […]
measurement name: concentration at 4 h (ng/mL)
One number for each entry, in ng/mL.

# input Using known records, supply concentration at 4 h for O=P(O)(O)C(O)(Cn1ccnc1)P(=O)(O)O [Zoledronic acid monohydrate]
# output 108

====

- assay: Dog PK study: zoledronic acid in serum after IV or oral capsule dosing, enteric or non-enteric coated, with or without excess coformer (LC/MS/MS)
- Type: in vivo, Beagle dogs
- setup conditions: beagle, iv, 0.183 mg/kg, Leg 13, 0.183 mg/kg IV, saline solution, 1 h, read-out: Average serum concentration of 5 dogs
measurement name: concentration at 1 h (ng/mL)
Give bare numbers, in ng/mL.

# input Using known records, supply concentration at 1 h for O=P(O)(O)C(O)(Cn1ccnc1)P(=O)(O)O [Zoledronic acid]
# output 245

====

- assay: Dog PK study: zoledronic acid in serum after IV or oral capsule dosing, enteric or non-enteric coated, with or without excess coformer (LC/MS/MS)
- Assay type: in vivo, Beagle dogs
- setup conditions: beagle, intravenous, 0.12 mg/kg, Leg 18, 15 min IV infusion 0.12 mg/kg, saline solution, Time 0.5 hour, read-out: Average serum concentration of 5 dogs
- From the text: This can be attributed to the fact that both animals have historically been used in the safety evaluation and PK screening studies and are recommended by appropriate regulatory agencies. […] Additional tests included ID administration in rats and administration of enteric coated capsules in dogs. USA. Some animals have surgical catheters (jugular vein and intraduodenum) were implanted to the animals prior to the studies. […]
measurement name: concentration at 0.5 h (ng/mL)
Numbers only, in ng/mL.

# input Using known records, supply concentration at 0.5 h for O=P(O)(O)C(O)(Cn1ccnc1)P(=O)(O)O [Zoledronic acid]
# output 323

====

- assay: Dog PK study: zoledronic acid in serum after IV or oral capsule dosing, enteric or non-enteric coated, with or without excess coformer (LC/MS/MS)
- Type: in vivo, Beagle dogs
- setup conditions: beagle, po, 56 mg, Leg 7, 56.0 mg, enteric coated capsule, PO, 0.75 h, read-out: Average serum concentration of 5 dogs
measurement name: concentration at 0.75 h (ng/mL)
Numbers only, in ng/mL.

# input Using known records, supply concentration at 0.75 h for O=P(O)(O)C(O)(Cn1ccnc1)P(=O)(O)O [Zoledronic acid monohydrate]
# output 0

====

- assay: Dog PK study: zoledronic acid in serum after IV or oral capsule dosing, enteric or non-enteric coated, with or without excess coformer (LC/MS/MS)
- Format: in vivo, Beagle dogs
- setup conditions: beagle, iv, 0.183 mg/kg, Leg 13, 0.183 mg/kg IV, saline solution, 4 h, read-out: Average serum concentration of 5 dogs
measurement name: concentration at 4 h (ng/mL)
One number for each entry, in ng/mL.

# input Using known records, supply concentration at 4 h for O=P(O)(O)C(O)(Cn1ccnc1)P(=O)(O)O [Zoledronic acid]
# output 23.4

====

- assay: Dog PK study: zoledronic acid in serum after IV or oral capsule dosing, enteric or non-enteric coated, with or without excess coformer (LC/MS/MS)
- Format: in vivo, Beagle dogs
- setup conditions: beagle, po, Leg 19, 61.3 mg with 322.9 mg DL-lysine monohydrate, gelatin capsule, PO, 0 h, read-out: Average serum concentration of 5 dogs
measurement name: concentration at 0 h (ng/mL)
One number for each entry, in ng/mL.

# input Using known records, supply concentration at 0 h for O=P(O)(O)C(O)(Cn1ccnc1)P(=O)(O)O
# output 0

====

- assay: Dog PK study: zoledronic acid in serum after IV or oral capsule dosing, enteric or non-enteric coated, with or without excess coformer (LC/MS/MS)
- Type: in vivo, Beagle dogs
- setup conditions: beagle, iv, 0.183 mg/kg, Leg 13, 0.183 mg/kg IV, saline solution, 0.5 h, read-out: Average serum concentration of 5 dogs
measurement name: concentration at 0.5 h

# input Using known records, supply concentration at 0.5 h for O=P(O)(O)C(O)(Cn1ccnc1)P(=O)(O)O
# output 523 ng/mL
